# key: entry, value: koff
- Experimental target: T1, human IL-36γ, truncated (human, UniProt Q9NZH8 18-169)
- T1 construct: Bought from R&D Systems (cat 6835-IL); also called human IL-36 gamma; hIL-36gamma
- T1 sequence: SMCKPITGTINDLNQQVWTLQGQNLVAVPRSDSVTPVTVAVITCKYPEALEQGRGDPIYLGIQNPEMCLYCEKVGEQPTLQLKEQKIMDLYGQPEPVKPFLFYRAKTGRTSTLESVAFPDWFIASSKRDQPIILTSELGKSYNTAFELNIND
- Assay info: SPR, Biacore, 1:1 Langmuir fit; heads of c3 and c4 printed swapped
Measured attribute: koff (s⁻¹)

Binder: 144L249B LV9 HV10c (antibody, V domains shown, Humanized) VH: QVQLVQSGAEVKKPGASVKVSCKASGFNIKDTYIYWVRQAPGQGLEWIGRIDPAIGTTRYDPKFQGKATLTADTSTNTAYLELSSLRSEDTAVYYCARYDYSGSSFYFDYWGQGTLVTVSS VL: QAVVTQEPSLTVSPGGTVTLTCRSSTGAVTTSNYANWVQEKPGQLFTGLIGGTNDRAPGVPARFSGSLLGGKAALTLSGAQPEDEADYFCALWYSNHLVFGGGTKLTVL
Assay value: 0.000625
--
Binder: 144L249B (antibody, V domains shown, Mouse monoclonal from hybridoma; mouse IgG heavy and lambda light chain; also called mouse antibody 144L249B) VH: EVQLQQSGAELVKPGASVKLSCTASGFNIKDTYIYWVKQRPEQGLEWIGRIDPAIGTTRYDPKFQGKATLTADTSSNTAFLQLSSLTSEDTAVYYCARYDYSGSSFYFDYWGRGTTLTVSS VL: QAVVTQESALTTSPGETVTLTCRSSTGAVTTSNYANWVQEKPDHLFTGLIGGTNNRAPGVPARFSGSLIGDKAALTITGAQTEDEAIYFCALWYSNHLVFGGGTKLTVL
Assay value: 0.000395
--
Binder: 144L249B LV7a HV11 (antibody, V domains shown, Humanized) VH: QVQLVQSGAEVKKPGASVKVSCKASGFNIKDTYIYWVRQAPGQGLEWIGRIDPAIGTTRYDPKFQGKATLTTDTSTNTAYLELSSLRSEDTAVYYCARYDYSGSSFYFDYWGQGTLVTVSS VL: QAVVTQEPSLTVSPGGTVTLTCRSSTGAVTTSNYANWVQQKPGQAFTGLIGGTNDRAPGVPARFSGSLLGGKAALTISGAQPEDEADYFCALWYSNHLVFGGGTKLTVL
Assay value: 0.000678
